- Target under test: HLA-DR11 (DRB1*1101) (human)
- Procedure text: competition binding
- Stated conditions: chains peptide; modification not given
# log10 of IC50 per entry
Assay endpoint: log10 of IC50 (log10 of the value in nM)

>>> test_result("KNQVEGEVQIVSTAAQTFLAT [10N 1052-1072]")
2.30
>>> test_result("RSPVFTDNSSPPVVPQSFQVAHLHAPTGSGKSTK [17N 1206-1239]")
2.74
>>> test_result("GREILLGPADGMVSKGWRLLAPITAYAQQTR [8N 1007-1037]")
0.00
>>> test_result("AQGYKVLVLNPSVAATLGFGAYMSKAHGID [18N 1246-1275]")
1.60
>>> test_result("PQDVKFPGGGQIVGGVYLLPRRGPRLGVR [1C 19-47]")
1.76
>>> test_result("SSDLYLVTRHADVIPVRRRGDSRGSLL [13N 1127-1153]")
1.23
